Molecular target: ROCK2 (Homo sapiens, UniProt O75116)
Construct: T7 phage fusion (kinase-tagged phage) or DNA tag for qPCR detection
Sequence (O75116 whole entry, the tested form may be a part): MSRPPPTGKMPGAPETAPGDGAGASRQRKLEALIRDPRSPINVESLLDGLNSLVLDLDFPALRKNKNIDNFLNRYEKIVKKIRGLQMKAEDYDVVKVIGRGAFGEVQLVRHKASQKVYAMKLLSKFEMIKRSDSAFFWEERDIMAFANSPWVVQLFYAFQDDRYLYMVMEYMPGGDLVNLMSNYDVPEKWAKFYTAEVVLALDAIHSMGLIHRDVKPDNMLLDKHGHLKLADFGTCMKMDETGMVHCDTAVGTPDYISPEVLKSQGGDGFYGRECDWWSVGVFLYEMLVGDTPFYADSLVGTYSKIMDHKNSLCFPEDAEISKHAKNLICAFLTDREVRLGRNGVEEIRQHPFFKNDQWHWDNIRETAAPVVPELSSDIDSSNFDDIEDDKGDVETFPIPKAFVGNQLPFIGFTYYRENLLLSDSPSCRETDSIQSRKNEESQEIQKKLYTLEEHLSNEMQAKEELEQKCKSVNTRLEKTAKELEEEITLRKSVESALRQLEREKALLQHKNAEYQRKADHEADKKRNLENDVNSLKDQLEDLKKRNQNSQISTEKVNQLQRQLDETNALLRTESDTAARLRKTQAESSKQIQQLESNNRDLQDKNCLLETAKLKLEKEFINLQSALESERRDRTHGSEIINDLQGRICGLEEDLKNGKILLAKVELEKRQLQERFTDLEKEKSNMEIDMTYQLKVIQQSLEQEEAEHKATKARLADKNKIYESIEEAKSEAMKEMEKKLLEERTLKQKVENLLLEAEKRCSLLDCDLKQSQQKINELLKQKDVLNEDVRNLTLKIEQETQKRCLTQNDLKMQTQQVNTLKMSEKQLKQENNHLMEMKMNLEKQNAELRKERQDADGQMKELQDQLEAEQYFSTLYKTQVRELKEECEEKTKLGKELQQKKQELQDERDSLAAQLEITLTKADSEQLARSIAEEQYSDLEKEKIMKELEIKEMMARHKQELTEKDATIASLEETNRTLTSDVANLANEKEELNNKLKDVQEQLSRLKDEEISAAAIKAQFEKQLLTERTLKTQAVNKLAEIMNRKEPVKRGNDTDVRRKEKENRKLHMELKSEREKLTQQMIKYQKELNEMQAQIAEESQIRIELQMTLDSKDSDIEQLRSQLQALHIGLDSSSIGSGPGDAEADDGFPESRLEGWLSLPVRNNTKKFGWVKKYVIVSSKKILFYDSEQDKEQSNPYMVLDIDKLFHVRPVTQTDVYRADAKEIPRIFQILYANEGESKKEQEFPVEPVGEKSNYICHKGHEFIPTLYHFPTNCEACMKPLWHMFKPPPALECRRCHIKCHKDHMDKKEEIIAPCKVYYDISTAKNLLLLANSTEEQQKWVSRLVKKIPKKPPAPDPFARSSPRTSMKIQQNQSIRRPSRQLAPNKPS
Experiment: ROCK2 kinase binding affinity, DiscoverX KINOMEscan KdELECT
Conditions: KINOMEscan KdELECT, 11-point 3-fold dilution; read-out: Kd (μM) ROCK2
assay.endpoint: Kd

{"columns": ["molecule", "target.entity", "Kd"],
 "data": [
  ["C(#Cc1ccnc(-c2ccnc(NCc3ccco3)n2)n1)c1ccc2[nH]ncc2c1 [Ex. 40]", "ROCK2 (Homo sapiens, UniProt O75116)", "0.01 to 0.099 µM"],
  ["CC(C)(N)CNc1nccc(-c2nccc(C#Cc3ccc4[nH]ncc4c3)n2)n1 [Ex. 89]", "ROCK2 (Homo sapiens, UniProt O75116)", "0.1 to 0.99 µM"],
  ["Fc1cc(F)c(F)c(CNc2nccc(-c3nccc(C#Cc4ccc5[nH]nc(F)c5c4)n3)n2)c1 [Ex. 60]", "ROCK2 (Homo sapiens, UniProt O75116)", "1 to 9.9 µM"]
]}

IN: Any idea what Kd came out for O=C(CNc1nccc(-c2nccc(C#Cc3ccc4[nH]ncc4c3)n2)n1)N1CCCC1 [Ex. 52] on ROCK2 (Homo sapiens, UniProt O75116)?
OUT: < 0.01 µM

IN: Any idea what Kd came out for Fc1cccc(CNc2nccc(-c3nccc(C#Cc4ccc5[nH]ncc5c4)n3)n2)c1F [Ex. 26] on ROCK2 (Homo sapiens, UniProt O75116)?
OUT: 0.01 to 0.099 µM

IN: Any idea what Kd came out for C(#Cc1ccnc(-c2ccnc(NCc3ccccc3)n2)n1)c1ccc2[nH]ncc2c1 [Ex. 14] on ROCK2 (Homo sapiens, UniProt O75116)?
OUT: 0.01 to 0.099 µM

IN: Any idea what Kd came out for O=c1[nH]cccc1CNc1nccc(-c2nccc(C#Cc3ccc4[nH]ncc4c3)n2)n1 [Ex. 21] on ROCK2 (Homo sapiens, UniProt O75116)?
OUT: 0.01 to 0.099 µM

IN: Any idea what Kd came out for O[C@@H]1CC[C@@H](Nc2nccc(-c3nccc(C#Cc4ccc5[nH]ncc5c4)n3)n2)C1 [Ex. 78] on ROCK2 (Homo sapiens, UniProt O75116)?
OUT: < 0.01 µM

----------
Molecular target: ROCK1 (Homo sapiens, UniProt Q13464)
Construct: T7 phage fusion (kinase-tagged phage) or DNA tag for qPCR detection
Sequence (Q13464 whole entry, the tested form may be a part): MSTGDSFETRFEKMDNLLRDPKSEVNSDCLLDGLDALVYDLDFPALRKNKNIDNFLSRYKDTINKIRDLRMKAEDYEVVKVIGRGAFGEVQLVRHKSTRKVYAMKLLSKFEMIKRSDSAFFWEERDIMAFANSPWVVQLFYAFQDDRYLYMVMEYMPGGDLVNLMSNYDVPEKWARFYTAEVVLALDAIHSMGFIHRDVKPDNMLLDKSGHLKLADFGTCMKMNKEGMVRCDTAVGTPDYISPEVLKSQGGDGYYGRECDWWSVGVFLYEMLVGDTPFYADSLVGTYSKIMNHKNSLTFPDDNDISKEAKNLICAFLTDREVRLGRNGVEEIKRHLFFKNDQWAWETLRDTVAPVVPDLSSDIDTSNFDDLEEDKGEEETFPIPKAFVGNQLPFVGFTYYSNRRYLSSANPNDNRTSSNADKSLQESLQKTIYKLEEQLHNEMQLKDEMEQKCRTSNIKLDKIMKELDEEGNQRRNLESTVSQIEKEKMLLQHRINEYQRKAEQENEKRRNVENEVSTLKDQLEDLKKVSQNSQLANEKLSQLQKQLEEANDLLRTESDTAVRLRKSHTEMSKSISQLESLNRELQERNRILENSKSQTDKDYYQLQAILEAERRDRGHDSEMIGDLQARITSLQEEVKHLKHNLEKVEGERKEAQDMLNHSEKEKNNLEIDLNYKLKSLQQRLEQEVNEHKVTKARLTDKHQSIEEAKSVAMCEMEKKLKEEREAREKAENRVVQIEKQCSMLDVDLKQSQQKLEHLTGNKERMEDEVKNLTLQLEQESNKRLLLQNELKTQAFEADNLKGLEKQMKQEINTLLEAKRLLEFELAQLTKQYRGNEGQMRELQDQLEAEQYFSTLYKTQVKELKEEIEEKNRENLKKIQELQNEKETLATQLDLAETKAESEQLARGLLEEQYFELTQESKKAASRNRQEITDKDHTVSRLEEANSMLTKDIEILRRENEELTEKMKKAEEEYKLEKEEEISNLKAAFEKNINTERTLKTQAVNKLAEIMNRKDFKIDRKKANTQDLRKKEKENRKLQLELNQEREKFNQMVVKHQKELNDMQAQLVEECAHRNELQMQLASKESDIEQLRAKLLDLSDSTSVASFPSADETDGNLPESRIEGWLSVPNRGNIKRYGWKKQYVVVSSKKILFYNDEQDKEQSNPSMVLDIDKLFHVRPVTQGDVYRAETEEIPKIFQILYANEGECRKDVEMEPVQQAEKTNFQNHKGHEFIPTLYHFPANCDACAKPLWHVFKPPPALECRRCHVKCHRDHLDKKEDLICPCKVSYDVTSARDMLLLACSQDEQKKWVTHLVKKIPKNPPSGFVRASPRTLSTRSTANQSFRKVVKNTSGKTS
Assay: ROCK1 kinase binding affinity, DiscoverX KINOMEscan KdELECT
Conditions: 11-point 3-fold dilution
Description: 1. ROCK1 and ROCK2 kinase assays: The ROCK1 and ROCK2 kinase binding affinities of compounds in this disclosure were determined by DiscoverX's KINOMEscan™ KdELECT technology (https://www.discoverx.com/kinomescan-elect-kinase-screening-and-profiling-services): Kinase-tagged T7 phage strains were prepared in an E. coli host derived from the BL21 strain. […] Kds were determined using an 11-point 3-fold compound dilution series with three DMSO control points. […]
assay.endpoint: Kd

{"columns": ["compound", "assay.endpoint", "recorded.result"],
 "data": [
  ["FC(F)(F)c1ccc(CNc2nccc(-c3nccc(C#Cc4ccc5[nH]ncc5c4)n3)n2)nc1", "Kd", "0.1 to 0.99 µM"]
]}

IN: For the compound CS(=O)(=O)CCNc1nccc(-c2nccc(C#Cc3ccc4[nH]ncc4c3)n2)n1 , what Kd is on record?
OUT: 1 to 9.9 µM

IN: For the compound Fc1cccc(F)c1CNc1nccc(-c2nccc(C#Cc3ccc4[nH]ncc4c3)n2)n1 , what Kd is on record?
OUT: 10 to 100 µM

IN: For the compound CN(C)C(=O)CNc1nccc(-c2nccc(C#Cc3ccc4[nH]nc(F)c4c3)n2)n1 , what Kd is on record?
OUT: 1 to 9.9 µM

IN: For the compound Fc1ccc(CNc2nccc(-c3nccc(C#Cc4ccc5[nH]ncc5c4)n3)n2)cc1 , what Kd is on record?
OUT: 1 to 9.9 µM

IN: For the compound O[C@H]1CC[C@@H](Nc2nccc(-c3nccc(C#Cc4ccc5cncn5c4)n3)n2)CC1 , what Kd is on record?
OUT: 10 to 100 µM

IN: For the compound C(#Cc1ccnc(-c2ccnc(NCC3CCCCN3)n2)n1)c1ccc2[nH]ncc2c1 (centres unmarked) , what Kd is on record?
OUT: 1 to 9.9 µM

IN: For the compound C[C@H](O)CNc1nccc(-c2nccc(C#Cc3ccc4[nH]ncc4c3)n2)n1 , what Kd is on record?
OUT: 1 to 9.9 µM
